Value source: patent US8017767B2

Catalogue of Initial pH difference values
Experiment: Accelerated stability test (50° C.) with pH stability test of sucralose sample solution
Type: physicochemical
Conditions: sample solution vs pH-adjusted water at time zero, (−) pH drop, (+) pH gain; Example 1

Sample records with Initial pH difference:
OC[C@H]1O[C@H](O[C@]2(CCl)O[C@H](CCl)[C@@H](O)[C@@H]2O)[C@H](O)[C@@H](O)[C@H]1Cl [Sample 12] | −0.10
OC[C@H]1O[C@H](O[C@]2(CCl)O[C@H](CCl)[C@@H](O)[C@@H]2O)[C@H](O)[C@@H](O)[C@H]1Cl [Sample 14] | +0.02

input: Consider the molecule OC[C@H]1O[C@H](O[C@]2(CCl)O[C@H](CCl)[C@@H](O)[C@@H]2O)[C@H](O)[C@@H](O)[C@H]1Cl [Sample 22] and give its recorded Initial pH difference.
output: +0.09

* * *

Assay: Accelerated stability test (50° C.) with pH stability test of sucralose sample solution
Assay type: physicochemical
Conditions: 50° C.; partially dried product at intermediate (initial) moisture content; Example 3
parameter: Days to pH Failure (Initial Moisture Content)
Please don't drop the unit; write it after the number.

OC[C@H]1O[C@H](O[C@]2(CCl)O[C@H](CCl)[C@@H](O)[C@@H]2O)[C@H](O)[C@@H](O)[C@H]1Cl [Sample 38] | 23 Days
OC[C@H]1O[C@H](O[C@]2(CCl)O[C@H](CCl)[C@@H](O)[C@@H]2O)[C@H](O)[C@@H](O)[C@H]1Cl [Sample 41] | 12 Days
OC[C@H]1O[C@H](O[C@]2(CCl)O[C@H](CCl)[C@@H](O)[C@@H]2O)[C@H](O)[C@@H](O)[C@H]1Cl [Sample 35] | 7 Days

input: Consider the molecule OC[C@H]1O[C@H](O[C@]2(CCl)O[C@H](CCl)[C@@H](O)[C@@H]2O)[C@H](O)[C@@H](O)[C@H]1Cl [Sample 43] and give its recorded Days to pH Failure (Initial Moisture Content).
output: 8 Days

input: Consider the molecule OC[C@H]1O[C@H](O[C@]2(CCl)O[C@H](CCl)[C@@H](O)[C@@H]2O)[C@H](O)[C@@H](O)[C@H]1Cl [Sample 40] and give its recorded Days to pH Failure (Initial Moisture Content).
output: 13 Days

input: Consider the molecule OC[C@H]1O[C@H](O[C@]2(CCl)O[C@H](CCl)[C@@H](O)[C@@H]2O)[C@H](O)[C@@H](O)[C@H]1Cl [Sample 42] and give its recorded Days to pH Failure (Initial Moisture Content).
output: 9 Days

* * *

Catalogue of Initial pH values
Experiment: Accelerated stability test (50° C.) with pH stability test of sucralose sample solution
Type: physicochemical
Conditions: sample solution (5 g in 50 ml pH-adjusted water) at time zero; Example 1, sodium acetate in mother liquor varied
When you answer, write just the number.

OC[C@H]1O[C@H](O[C@]2(CCl)O[C@H](CCl)[C@@H](O)[C@@H]2O)[C@H](O)[C@@H](O)[C@H]1Cl [Sample 8] | 5.19
OC[C@H]1O[C@H](O[C@]2(CCl)O[C@H](CCl)[C@@H](O)[C@@H]2O)[C@H](O)[C@@H](O)[C@H]1Cl [Sample 23] | 6.12
OC[C@H]1O[C@H](O[C@]2(CCl)O[C@H](CCl)[C@@H](O)[C@@H]2O)[C@H](O)[C@@H](O)[C@H]1Cl [Sample 12] | 5.85

input: Consider the compound OC[C@H]1O[C@H](O[C@]2(CCl)O[C@H](CCl)[C@@H](O)[C@@H]2O)[C@H](O)[C@@H](O)[C@H]1Cl [Sample 2] and give its recorded Initial pH.
output: 5.73

* * *

Catalogue of Initial pH difference values
Assay: Accelerated stability test (50° C.) with pH stability test of sucralose sample solution
Format: physicochemical
Conditions: sample solution vs pH-adjusted water at time zero, (−) pH drop, (+) pH gain; Example 1

OC[C@H]1O[C@H](O[C@]2(CCl)O[C@H](CCl)[C@@H](O)[C@@H]2O)[C@H](O)[C@@H](O)[C@H]1Cl [Sample 16] | +0.27

input: Consider the compound OC[C@H]1O[C@H](O[C@]2(CCl)O[C@H](CCl)[C@@H](O)[C@@H]2O)[C@H](O)[C@@H](O)[C@H]1Cl [Sample 19] and give its recorded Initial pH difference.
output: +0.13

input: Consider the compound OC[C@H]1O[C@H](O[C@]2(CCl)O[C@H](CCl)[C@@H](O)[C@@H]2O)[C@H](O)[C@@H](O)[C@H]1Cl [Sample 1] and give its recorded Initial pH difference.
output: −0.20

input: Consider the compound OC[C@H]1O[C@H](O[C@]2(CCl)O[C@H](CCl)[C@@H](O)[C@@H]2O)[C@H](O)[C@@H](O)[C@H]1Cl [Sample 21] and give its recorded Initial pH difference.
output: +0.10

input: Consider the compound OC[C@H]1O[C@H](O[C@]2(CCl)O[C@H](CCl)[C@@H](O)[C@@H]2O)[C@H](O)[C@@H](O)[C@H]1Cl [Sample 31] and give its recorded Initial pH difference.
output: +0.06

* * *

Assay: Accelerated stability test (50° C.) with pH stability test of sucralose sample solution
Type: physicochemical
Conditions: sample solution vs pH-adjusted water at time zero; Example 2, pH at crystallizer varied
Catalogue of Initial pH difference values

Sample records with Initial pH difference:
OC[C@H]1O[C@H](O[C@]2(CCl)O[C@H](CCl)[C@@H](O)[C@@H]2O)[C@H](O)[C@@H](O)[C@H]1Cl [Sample 35] | +0.10
OC[C@H]1O[C@H](O[C@]2(CCl)O[C@H](CCl)[C@@H](O)[C@@H]2O)[C@H](O)[C@@H](O)[C@H]1Cl [Sample 40] | +0.40
OC[C@H]1O[C@H](O[C@]2(CCl)O[C@H](CCl)[C@@H](O)[C@@H]2O)[C@H](O)[C@@H](O)[C@H]1Cl [Sample 43] | +0.29

input: Consider the molecule OC[C@H]1O[C@H](O[C@]2(CCl)O[C@H](CCl)[C@@H](O)[C@@H]2O)[C@H](O)[C@@H](O)[C@H]1Cl [Sample 45] and give its recorded Initial pH difference.
output: +0.17

input: Consider the molecule OC[C@H]1O[C@H](O[C@]2(CCl)O[C@H](CCl)[C@@H](O)[C@@H]2O)[C@H](O)[C@@H](O)[C@H]1Cl [Sample 36] and give its recorded Initial pH difference.
output: +0.04

input: Consider the molecule OC[C@H]1O[C@H](O[C@]2(CCl)O[C@H](CCl)[C@@H](O)[C@@H]2O)[C@H](O)[C@@H](O)[C@H]1Cl [Sample 38] and give its recorded Initial pH difference.
output: +0.17

input: Consider the molecule OC[C@H]1O[C@H](O[C@]2(CCl)O[C@H](CCl)[C@@H](O)[C@@H]2O)[C@H](O)[C@@H](O)[C@H]1Cl [Sample 42] and give its recorded Initial pH difference.
output: +0.17

input: Consider the molecule OC[C@H]1O[C@H](O[C@]2(CCl)O[C@H](CCl)[C@@H](O)[C@@H]2O)[C@H](O)[C@@H](O)[C@H]1Cl [Sample 46] and give its recorded Initial pH difference.
output: +0.43

input: Consider the molecule OC[C@H]1O[C@H](O[C@]2(CCl)O[C@H](CCl)[C@@H](O)[C@@H]2O)[C@H](O)[C@@H](O)[C@H]1Cl [Sample 41] and give its recorded Initial pH difference.
output: +0.40

* * *

Experiment: Accelerated stability test (50° C.) with pH stability test of sucralose sample solution
Assay type: physicochemical
Settings: 50° C., WHIRLPAK polyethylene bags; failure = pH drop ≧1.0; Example 2, pH at crystallizer varied
parameter: Days to pH Failure (Days)
Kindly provide the numeric value in Days only, without the unit symbol.

input: Consider the molecule OC[C@H]1O[C@H](O[C@]2(CCl)O[C@H](CCl)[C@@H](O)[C@@H]2O)[C@H](O)[C@@H](O)[C@H]1Cl [Sample 45] and give its recorded Days to pH Failure.
output: 7

input: Consider the molecule OC[C@H]1O[C@H](O[C@]2(CCl)O[C@H](CCl)[C@@H](O)[C@@H]2O)[C@H](O)[C@@H](O)[C@H]1Cl [Sample 33] and give its recorded Days to pH Failure.
output: 4

input: Consider the molecule OC[C@H]1O[C@H](O[C@]2(CCl)O[C@H](CCl)[C@@H](O)[C@@H]2O)[C@H](O)[C@@H](O)[C@H]1Cl [Sample 41] and give its recorded Days to pH Failure.
output: 5

input: Consider the molecule OC[C@H]1O[C@H](O[C@]2(CCl)O[C@H](CCl)[C@@H](O)[C@@H]2O)[C@H](O)[C@@H](O)[C@H]1Cl [Sample 37] and give its recorded Days to pH Failure.
output: 5

* * *

Catalogue of Initial pH difference values
Test: Accelerated stability test (50° C.) with pH stability test of sucralose sample solution
Type: physicochemical
Conditions: sample solution vs pH-adjusted water at time zero, (−) pH drop, (+) pH gain; Example 1

Sample records with Initial pH difference:
OC[C@H]1O[C@H](O[C@]2(CCl)O[C@H](CCl)[C@@H](O)[C@@H]2O)[C@H](O)[C@@H](O)[C@H]1Cl [Sample 17] | +0.10
OC[C@H]1O[C@H](O[C@]2(CCl)O[C@H](CCl)[C@@H](O)[C@@H]2O)[C@H](O)[C@@H](O)[C@H]1Cl [Sample 6] | −0.39
OC[C@H]1O[C@H](O[C@]2(CCl)O[C@H](CCl)[C@@H](O)[C@@H]2O)[C@H](O)[C@@H](O)[C@H]1Cl [Sample 23] | +0.13

input: Consider the molecule OC[C@H]1O[C@H](O[C@]2(CCl)O[C@H](CCl)[C@@H](O)[C@@H]2O)[C@H](O)[C@@H](O)[C@H]1Cl [Sample 9] and give its recorded Initial pH difference.
output: +0.23
